Source of measurements: ChEMBL document CHEMBL4699639

What IC50 was measured for each of the following?
# Test system: HepG2
# Measurement description: Cytotoxicity against human HepG2 cells assessed as reduction in cell viability incubated for 24 hrs by Celltiter-blue assay
# Format: cell-based
# Condition label: HepG2, 24 h

Recorded IC50, per entry:
Form field: IC50 recorded for CC1=C(CCCC(=O)NCCc2ccc(O)cc2)C(=O)c2ccccc2C1=O with HepG2 (enter value)
> 100 µM

Next compound: CC1=C(Nc2ccc(F)c(C(F)(F)F)c2)C(=O)c2ccccc2C1=O
> 100 µM

Continuing:
Lab request: please report IC50 under test system HepG2 for COC1=C(Nc2ccc(F)c(C(F)(F)F)c2)C(=O)c2ccccc2C1=O
> 100 µM
